Reference source for all entries: paper PMC9393390

TARGET_UNDER_TEST: SARS-CoV-2-RBD (S-RBD) (Severe acute respiratory syndrome coronavirus 2, UniProt P0DTC2)
Construct: purchased Sino Biological
PROTOCOL_SUMMARY: Surface plasmon resonance (SPR) binding to immobilized S-RBD
Record form. Attribute: pKd. Fill in for each entry.
The scale used: pKd is minus the common logarithm of the concentration in molar units.

pKd in this record for CC(C)=CCC[C@](C)(O[C@@H]1O[C@H](CO[C@@H]2O[C@@H](CO)[C@H](O)[C@H]2O)[C@@H](O)[C@H](O)[C@H]1O)[C@H]1CC[C@]2(C)[C@@H]1[C@H](O)C[C@@H]1[C@@]3(C)CC[C@H](O[C@@H]4O[C@H](CO)[C@@H](O)[C@H](O)[C@H]4O[C@@H]4O[C@H](CO)[C@@H](O)[C@H](O)[C@H]4O)C(C)(C)[C@@H]3CC[C@]12C [Ginsenoside Rc] : 4.10

Looking up CC[C@H](C)C(=O)O[C@H]1CCC=C2C=C[C@H](C)[C@H](CC[C@@H]3C[C@@H](O)CC(=O)O3)[C@H]21 , I see its pKd listed as 3.56

Entry C[C@@H]1[C@H](O)[C@@H](C)/C=C/C=C/C=C/C=C/C=C/C=C/C=C/[C@H](O[C@@H]2O[C@H](C)[C@@H](O)[C@H](N)[C@@H]2O)C[C@@H]2O[C@](O)(C[C@@H](O)C[C@@H](O)[C@H](O)CC[C@@H](O)C[C@@H](O)CC(=O)O[C@H]1C)C[C@H](O)[C@H]2C(=O)O , pKd reported as 6.00

pKd for O=S(=O)(O)Oc1ccc(C(c2ccc(OS(=O)(=O)O)cc2)c2ccccn2)cc1 [Sodium Picosulfate] is 4.80

The molecule listed as COC(=O)C1=CO[C@@H](O[C@@H]2O[C@H](CO)[C@@H](O)[C@H](O)[C@H]2O)[C@@H]2C(CO)=CC[C@H]12 [Geniposide] has a reported pKd of 4.26

Sure, the documented pKd for Cc1cc(OCCCS(C)(=O)=O)cc(C)c1-c1cccc(COc2ccc3c(c2)OC[C@H]3CC(=O)O)c1 is 4.37

So, Nc1c(Br)cc(Br)cc1CN[C@H]1CC[C@H](O)CC1 ? Its pKd was 4.67
